The reported measurements were obtained from the supplement of paper PMC10567573.

Task for the reader: assign each of the following variants its reported protein stability index.
B1: EMD (parent)
chain: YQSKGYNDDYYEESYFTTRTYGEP

# Variants of: B1
# ASSAY_METHOD_TEXT: protein stability index of a GFP-peptide fusion (GPS, HEK-293T) (PSI 1-6); higher = more stable;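 also: lentivirally expressed fusions sorted by FACS into six bins by GFP to DsRed ratio, PSI derived from sequencing read proportions per bin multiplied by bin number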
# CONDITION_LABEL: c terminus: a fixed tail appended
Give your answer as a number; write no unit.

[in] Find the recorded protein stability index belonging to E12T and report it.
[out] 2.2

[in] I would be grateful if you could share the reported protein stability index for Q2R .
[out] 2.54

[in] # protein stability index lookup, item Y11R
[out] 2.66

[in] For the variant shown here, E13F , give the reported protein stability index.
[out] 3.37

[in] Returns the measured protein stability index for the input variant. Input: T18C
[out] 2.08

[in] Bench note: what protein stability index did G22D show?
[out] 2.23

[in] Using the record for T20P , report its protein stability index.
[out] 2.17

[in] Which protein stability index value belongs to P24A ?
[out] 2.28

[in] Returns the measured protein stability index for the input variant. Input: G5M
[out] 1.74

[in] Field request: protein stability index | item: D9H
[out] 1.89

[in] Look up protein stability index for this variant: Y11D
[out] 3.29

[in] Requested field: protein stability index. Item: Y10V
[out] 2.82

[in] Consider the variant shown here: G5Q What is its recorded protein stability index?
[out] 2.48

[in] protein stability index for K4G ?
[out] 2.12

[in] What does the record list as protein stability index for Y6F ?
[out] 2.4

[in] Using the record for G5F , report its protein stability index.
[out] 2.33

[in] For the variant shown here, G5K , give the reported protein stability index.
[out] 2.22

[in] # lookup: protein stability index of N7F
[out] 3.55

[in] Any idea what its protein stability index is? The variant is R19D
[out] 3.08

[in] What does the record list as protein stability index for Y15N ?
[out] 3.06

[in] GET /values?readout=protein stability index&item= N7M
[out] 1.67

[in] Given the variant S14G , what is its reported protein stability index?
[out] 2.37
